Ref: patent US20250099420A1

- Test system: parental HEK cells
- EXPERIMENTAL_PROTOCOL: HEK parental Agonist Counterscreen Assay (non-transfected cells)
- Type: cell-based
- PROTOCOL_CONDITIONS: HEK Agonist Activity section
MEASURED_QUANTITY: Lipophilic Efficiency (logD)

## Input Query Lipophilic Efficiency (logD) for O=C(Cn1ncc2c1-c1ccccc1OC2)Nc1ccc(Cl)cc1 [SR-01000098980]
## Output 1.77

## Input Query Lipophilic Efficiency (logD) for CC1(c2ccc3c(c2)OCCO3)NC(=O)C(CC(=O)NCC2CCCCC2)C1=O (stereo not shown)
## Output 3.15

## Input Query Lipophilic Efficiency (logD) for O=C(CN1CCN(Cc2ccccc2Cl)C1=O)NC1CCCCCC1
## Output 2.02

## Input Query Lipophilic Efficiency (logD) for CN(Cc1ccc[nH]1)C(=O)CN1C(=O)NC2(CCc3ccccc3C2)C1=O (stereo not shown)
## Output 2.52

(P) Cc1cccc(OCC(=O)NNC(=O)C(C)Oc2ccc(Cl)cc2Cl)c1 (stereo not shown)
(Q) COc1ccc(C(=O)NNC(=O)COc2ccc(Cl)cc2Cl)cc1OC
## Input Select the item with the higher value of Lipophilic Efficiency (logD) from the options P and Q listed. Indicate your choice by writing its label.
## Output Q
(Q: 2.25, P: 1.19)

(1) CCC1(c2ccc(Cl)cc2)NC(=O)N(CC(=O)N2CC3(C)CC2CC(C)(C)C3)C1=O (stereo not shown)
(2) COc1ccc2cc(CCNC(=O)/C=C\c3ccc4c(c3)OCO4)c(=O)[nH]c2c1
(3) COc1ccc(NC(=O)NC(O)(O)c2cccc(C(C)=O)c2)cc1
## Input List from greatest to least Lipophilic Efficiency (logD). List each label, following the requested order.
## Output 2, 1, 3

(a) CC(CCc1ccccc1)NC(=O)Cn1ncc2c1-c1ccccc1OC2 (stereo not shown)
(b) CCOC(=O)N1CCC2=C(CC(NC(=O)Cc3cccc4ccccc34)=C2C(C)=O)C1
(c) O=C(CN1CCCN(Cc2ccc(F)cc2Cl)C1=O)NC1CCCCC1
## Input List from greatest to least Lipophilic Efficiency (logD). List each label, following the requested order.
## Output c, a, b

(I) CC(Oc1ccccc1)C(=O)NCCn1ccc2ccccc21 (stereo not shown)
(II) COC(=O)C(CCSC)NC(=O)C1CC(Cc2ccc3c(c2)OCO3)=NO1 (stereo not shown)
## Input For I and II , which recorded Lipophilic Efficiency (logD) is lower? Indicate your choice by writing its label.
## Output I

----------
- Test system: parental HEK cells
- EXPERIMENTAL_PROTOCOL: HEK parental Agonist Counterscreen Assay (non-transfected cells)
- Type: cell-based
- PROTOCOL_CONDITIONS: HEK Agonist Activity section
- Description: The high control for the agonist counterscreen was Forskolin not acetylcholine.
MEASURED_QUANTITY: Lipophilic Efficiency (logP)

(P) O=C(CCc1ccccc1)NNC(=O)C12CC3CC(CC(C3)C1)C2 [SR-01000314474]
(Q) O=C(CC1Nc2ccccc2NC1=O)NCC1COc2ccccc2O1 (centres unmarked) [SR-01000146516]
(R) Cc1ccccc1CN1CCC(O)(c2ccc(Cl)c(C(F)(F)F)c2)CC1 [SR-05000022582]
(S) O=C(CN1N=C(c2ccc(Cl)cc2)CCC1=O)NCCN1CCc2ccccc2C1 [SR-01000145135]
## Input In this exercise, place the 4 molecules in ascending sequence of their recorded Lipophilic Efficiency (logP). List each label, following the requested order.
## Output R, P, S, Q

(1) O=C(O)COc1cc(Br)c(Br)c(Br)c1O [SR-01000028953]
(2) O=C(Cn1ncc2c1-c1ccccc1OC2)Nc1ccc(CCO)cc1 [SR-01000098914]
## Input Select the item with the higher value of Lipophilic Efficiency (logP) from the options 1 and 2 listed. Indicate your choice by writing its label.
## Output 2

(P) O=C(CCCOc1ccc(Cl)cc1Cl)NNC(=O)Cc1ccccc1 [SR-01000067982]
(Q) COc1ccc2c(c1)C[C@H](C(=O)Nc1ccc(-c3cn[nH]c3)cc1OCCN1CCCC1)NC2.O=C(O)C(F)(F)F.O=C(O)C(F)(F)F.O=C(O)C(F)(F)F [SR-00000007044]
## Input For P and Q , which recorded Lipophilic Efficiency (logP) is lower? Indicate your choice by writing its label.
## Output P

(P) CC(CCc1ccccc1)NC(=O)Cn1ncc2c1-c1ccccc1OC2 (centres unmarked) [SR-01000134913]
(Q) CC(C)CCNC(=O)CN1CCN(Cc2ccc(F)cc2Cl)C1=O [SR-01000161248]
## Input For P and Q , which recorded Lipophilic Efficiency (logP) is lower? Indicate your choice by writing its label.
## Output P

----------
- SYSTEM_NAME: GPR139 (Homo sapiens)
- Sequence (Q6DWJ6 1-353): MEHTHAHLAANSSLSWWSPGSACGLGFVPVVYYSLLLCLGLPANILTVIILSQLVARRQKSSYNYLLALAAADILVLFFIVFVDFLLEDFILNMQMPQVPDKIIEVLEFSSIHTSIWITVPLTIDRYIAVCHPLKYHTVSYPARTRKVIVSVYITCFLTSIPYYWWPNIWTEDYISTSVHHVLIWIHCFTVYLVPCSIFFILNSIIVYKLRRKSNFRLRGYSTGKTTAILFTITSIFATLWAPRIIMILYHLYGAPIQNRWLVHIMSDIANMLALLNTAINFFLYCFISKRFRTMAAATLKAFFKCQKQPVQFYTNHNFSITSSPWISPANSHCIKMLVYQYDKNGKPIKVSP
- EXPERIMENTAL_PROTOCOL: GPR139 Agonist titration / agonist counterscreen assay (calcium detection, HEK-GPR139 cells)
- Format: cell-based
- Set-up: expressed in transfected cells; host or cells: HEK Aequorin cells, Maxcyte transient transfection
- PROTOCOL_CONDITIONS: GPR139 Agonist Activity
MEASURED_QUANTITY: Lipophilic Efficiency (logP)

## Input Query Lipophilic Efficiency (logP) for CC(C)Cn1c2c(c(=O)[nH]c1=O)C(NC(=O)CCC1CCCCC1)(C(F)(F)F)C(=O)N2 (stereo not drawn) [SR-01000086488]
## Output 3.92

## Input Query Lipophilic Efficiency (logP) for O=C(Nc1ccc(-c2c[nH]cn2)cc1)C1COc2ccc(F)cc2C1 (stereo not drawn) [SR-00000004710]
## Output 3.11

## Input Query Lipophilic Efficiency (logP) for COc1ccc(CC(=O)NNC(=O)C(C)Oc2ccc(Cl)cc2Cl)cc1OC (stereo not drawn) [SR-01000312779]
## Output 2.74

## Input Query Lipophilic Efficiency (logP) for CCOc1ccccc1NC(=O)CN1C(=O)NC(C)(c2ccc(Cl)cc2Cl)C1=O (stereo not drawn) [SR-01000072797]
## Output 2.52

## Input Query Lipophilic Efficiency (logP) for Cc1[nH]ncc1-c1ccc(NC(=O)C2COc3ccc(F)cc3C2)c(OCCN2CCOCC2)c1.O=C(O)C(F)(F)F.O=C(O)C(F)(F)F (stereo not drawn) [SR-00000005393]
## Output 3.22

(1) CN(C)CCOc1cc(NC(=O)C2COc3ccccc3C2)ccc1-c1cn[nH]c1.O=C(O)C(F)(F)F.O=C(O)C(F)(F)F (stereo not drawn) [SR-00000004123]
(2) CCN1CCCc2cc(CCNC(=O)Nc3ccccc3)ccc21 [SR-01000923250]
## Input For 1 and 2 , which recorded Lipophilic Efficiency (logP) is lower? Indicate your choice by writing its label.
## Output 2
(2: 1.86, 1: 3.15)

----------
- SYSTEM_NAME: GPR139 (Homo sapiens)
- Sequence (Q6DWJ6 1-353): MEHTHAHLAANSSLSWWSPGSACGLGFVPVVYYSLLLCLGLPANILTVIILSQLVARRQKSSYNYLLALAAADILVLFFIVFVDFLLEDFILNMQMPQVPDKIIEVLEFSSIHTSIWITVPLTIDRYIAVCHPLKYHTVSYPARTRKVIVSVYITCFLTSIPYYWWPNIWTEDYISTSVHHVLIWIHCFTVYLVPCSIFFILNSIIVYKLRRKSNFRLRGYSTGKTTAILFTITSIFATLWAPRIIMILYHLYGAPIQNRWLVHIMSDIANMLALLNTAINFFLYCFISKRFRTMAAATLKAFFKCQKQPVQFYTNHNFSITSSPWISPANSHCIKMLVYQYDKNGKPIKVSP
- EXPERIMENTAL_PROTOCOL: GPR139 Agonist titration / agonist counterscreen assay (calcium detection, HEK-GPR139 cells)
- Format: cell-based
- Parameters: expressed in transfected cells; host or cells: HEK Aequorin cells, Maxcyte transient transfection
- PROTOCOL_CONDITIONS: GPR139 Agonist Activity; based on logD
MEASURED_QUANTITY: Lipophilic Efficiency (logD)

(a) Cc1ccccc1CN1CCN(CC(=O)NCCc2ccc(Cl)cc2)C1=O [SR-01000093460]
(b) O=C(CCc1nc2cccnc2n1Cc1cccs1)NCCc1cccs1 [SR-01000077903]
## Input For a and b , which recorded Lipophilic Efficiency (logD) is lower? Indicate your choice by writing its label.
## Output b

(P) COc1ccc(C(=O)NNC(=O)COc2ccc(Cl)cc2Cl)cc1OC [SR-01000357814]
(Q) COc1ccccc1NC(=O)NNC(=O)CN1C(=O)COc2ccccc21 [SR-01000336035]
## Input Select the item with the higher value of Lipophilic Efficiency (logD) from the options P and Q listed. Indicate your choice by writing its label.
## Output Q

(P) Cc1ccccc1SCC(=O)NNC(=O)c1ccc(Br)s1 [SR-01000069352]
(Q) O=C(NC1CC1)C1CC(Cc2cccc3ccccc23)=NO1 (stereo not shown) [SR-01000188699]
## Input For P and Q , which recorded Lipophilic Efficiency (logD) is lower? Indicate your choice by writing its label.
## Output P

(1) CC(C)C(CC(=O)Cc1cccc2ccccc12)C(=O)Nc1cccc(C#N)c1 (stereo not shown) [SR-05000022531]
(2) CN1CCC(Oc2cc(-c3cn[nH]c3)ccc2NC(=O)C2COc3ccc(F)cc3C2)C1 (stereo not shown) [SR-00000006339]
## Input Select the item with the higher value of Lipophilic Efficiency (logD) from the options 1 and 2 listed. Indicate your choice by writing its label.
## Output 2
